Recorded values, source patent US20200297760A1.

measuredTarget: HLA-B*08:01 (recombinant MHC class I molecule) (human)
assayText: REVEAL MHC-peptide binding assay, recombinant HLA-B*08:01
measuredQuantity: In Vitro Score

**Query** For the binder AFIIFWVKR [Synthetic peptide AFIIFWVKR] , what In Vitro Score is on record?
**Result** 1.9 score, % of positive control peptide

**Query** What do you have for FIIFWVSRG [Synthetic peptide FIIFWVSRG] ?
**Result** 0.4 score, % of positive control peptide

**Query** What do you have for VAFIIFWVH [Synthetic peptide VAFIIFWVH] ?
**Result** 0 score, % of positive control peptide

**Query** What do you have for IFWVKRGRK [Synthetic peptide IFWVKRGRK] ?
**Result** 0.4 score, % of positive control peptide

**Query** What do you have for FWVQRGRKK [Synthetic peptide FWVQRGRKK] ?
**Result** 1.9 score, % of positive control peptide

**Query** What do you have for IFWVLRGRK [Synthetic peptide IFWVLRGRK] ?
**Result** 0 score, % of positive control peptide

**Query** What do you have for FWVQRGAKK [Synthetic peptide FWVQRGAKK] ?
**Result** 0 score, % of positive control peptide

**Query** What do you have for WVSRGRKKL [Synthetic peptide WVSRGRKKL] ?
**Result** 6.2 score, % of positive control peptide

**Query** What do you have for FIIFWVLRG [Synthetic peptide FIIFWVLRG] ?
**Result** 0.2 score, % of positive control peptide

**Query** What do you have for WVLRGRKKL [Synthetic peptide WVLRGRKKL] ?
**Result** 4 score, % of positive control peptide

**Query** What do you have for FIIFWVKRG [Synthetic peptide FIIFWVKRG] ?
**Result** 0.1 score, % of positive control peptide

**Query** What do you have for FWVARGRKK [Synthetic peptide FWVARGRKK] ?
**Result** 0 score, % of positive control peptide

**Query** What do you have for FWVKRGSKK [Synthetic peptide FWVKRGSKK] ?
**Result** 0.1 score, % of positive control peptide

**Query** What do you have for AFIIFWVLR [Synthetic peptide AFIIFWVLR] ?
**Result** 0.2 score, % of positive control peptide

**Query** What do you have for FWVLRGRKK [Synthetic peptide FWVLRGRKK] ?
**Result** 0 score, % of positive control peptide

**Query** What do you have for IFWVQRGSK [Synthetic peptide IFWVQRGSK] ?
**Result** 0 score, % of positive control peptide

**Query** What do you have for IIFWVQRGS [Synthetic peptide IIFWVQRGS] ?
**Result** 0.1 score, % of positive control peptide

**Query** What do you have for FWVKRGNKK [Synthetic peptide FWVKRGNKK] ?
**Result** 0.1 score, % of positive control peptide

**Query** What do you have for IIFWVKRGH [Synthetic peptide IIFWVKRGH] ?
**Result** 0.1 score, % of positive control peptide

**Query** What do you have for FWVKRGLKK [Synthetic peptide FWVKRGLKK] ?
**Result** 6.3 score, % of positive control peptide

**Query** What do you have for VAFIIFWVA [Synthetic peptide VAFIIFWVA] ?
**Result** 0 score, % of positive control peptide
